- Target Under Test: human IL-6 (human, UniProt P05231 30-212)
- Sequence (P05231 30-212 limits assumed): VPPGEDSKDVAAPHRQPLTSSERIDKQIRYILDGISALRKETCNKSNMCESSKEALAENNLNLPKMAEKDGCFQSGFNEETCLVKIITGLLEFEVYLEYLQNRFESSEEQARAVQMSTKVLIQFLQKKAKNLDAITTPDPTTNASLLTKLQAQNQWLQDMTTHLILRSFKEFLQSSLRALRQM
- Assay Remarks: SPR Biacore, supernatant, Protein A capture, 37 C
Overview of reported koff across a group of binders:
Write the answer as a number in s⁻¹, unit excluded.

Record excerpt, results attached:
Binder	koff, s⁻¹
Anti-IL-6 antibody, heavy chain S35H, G66D, L100W / light chain M32L, M50D, N52S, M88Q (antibody, IgG1, V domains shown, IgG1; variable domains only; VL is variant III) VH: EVQLVESGGGLVQPGGSLRLSCAASGFTFSPFAMHWVRQAPGKGLEWVAKISPGGSWTYYSDTVTDRFTFSLDTSKSTAYLQMNSLRAEDTAVYYCARQWWGYYALDIWGQGTLVTVSS VL: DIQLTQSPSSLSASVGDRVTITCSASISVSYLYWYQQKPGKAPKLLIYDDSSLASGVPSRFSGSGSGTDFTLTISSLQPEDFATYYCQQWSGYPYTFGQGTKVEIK	0.00124
Anti-IL-6 antibody, heavy chain S35H, G66D, Q99F / light chain M32L, M50D, N52S, M88Q (antibody, IgG1, V domains shown, IgG1; variable domains only; VL is variant III) VH: EVQLVESGGGLVQPGGSLRLSCAASGFTFSPFAMHWVRQAPGKGLEWVAKISPGGSWTYYSDTVTDRFTFSLDTSKSTAYLQMNSLRAEDTAVYYCARFLWGYYALDIWGQGTLVTVSS VL: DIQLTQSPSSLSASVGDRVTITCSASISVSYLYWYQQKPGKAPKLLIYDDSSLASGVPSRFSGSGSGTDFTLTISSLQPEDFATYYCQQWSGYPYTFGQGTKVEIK	0.000113
Anti-IL-6 antibody, heavy chain S35H, G66D, L100E / light chain WT (antibody, IgG1, V domains shown, IgG1; variable domains only) VH: EVQLVESGGGLVQPGGSLRLSCAASGFTFSPFAMHWVRQAPGKGLEWVAKISPGGSWTYYSDTVTDRFTFSLDTSKSTAYLQMNSLRAEDTAVYYCARQEWGYYALDIWGQGTLVTVSS VL: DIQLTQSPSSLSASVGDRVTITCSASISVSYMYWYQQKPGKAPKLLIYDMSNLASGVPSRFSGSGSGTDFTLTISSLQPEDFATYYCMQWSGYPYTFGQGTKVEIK	0.000869

Q: For the binder Anti-IL-6 antibody, heavy chain S35H, G66D, L100A / light chain M32L, M50D, N52S, M88Q (antibody, IgG1, V domains shown, IgG1; variable domains only; VL is variant III) VH: EVQLVESGGGLVQPGGSLRLSCAASGFTFSPFAMHWVRQAPGKGLEWVAKISPGGSWTYYSDTVTDRFTFSLDTSKSTAYLQMNSLRAEDTAVYYCARQAWGYYALDIWGQGTLVTVSS VL: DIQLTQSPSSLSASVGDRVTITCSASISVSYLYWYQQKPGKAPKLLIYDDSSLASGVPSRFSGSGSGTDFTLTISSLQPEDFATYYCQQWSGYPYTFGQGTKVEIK , report koff.
Result: 0.00486

Q: Tell me koff reported for Anti-IL-6 antibody, heavy chain S35H, G66D, L100F / light chain M32L, M50D, N52S, M88Q (antibody, IgG1, V domains shown, IgG1; variable domains only; VL is variant III) VH: EVQLVESGGGLVQPGGSLRLSCAASGFTFSPFAMHWVRQAPGKGLEWVAKISPGGSWTYYSDTVTDRFTFSLDTSKSTAYLQMNSLRAEDTAVYYCARQFWGYYALDIWGQGTLVTVSS VL: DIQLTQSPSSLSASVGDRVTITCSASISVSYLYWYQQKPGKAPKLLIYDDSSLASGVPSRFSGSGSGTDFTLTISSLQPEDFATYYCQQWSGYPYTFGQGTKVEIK
Result: 0.000614
